Molecular target: human FPR1 (Homo sapiens, UniProt P21462)
Sequence (P21462 whole entry): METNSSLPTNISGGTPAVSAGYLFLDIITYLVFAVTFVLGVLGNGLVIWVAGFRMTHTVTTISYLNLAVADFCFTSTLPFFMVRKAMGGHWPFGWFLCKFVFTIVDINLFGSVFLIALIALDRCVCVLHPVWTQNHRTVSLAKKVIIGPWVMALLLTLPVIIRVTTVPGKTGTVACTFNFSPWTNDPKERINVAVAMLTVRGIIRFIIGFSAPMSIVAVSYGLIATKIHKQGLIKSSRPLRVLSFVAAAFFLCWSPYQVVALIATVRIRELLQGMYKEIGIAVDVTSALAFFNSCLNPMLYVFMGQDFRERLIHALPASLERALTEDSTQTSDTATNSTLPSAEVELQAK
Assay: FPR1 cyclic adenosine monophosphate (cAMP) assay
Assay type: cell-based
Conditions: CHO cells overexpressing human FPR1; forskolin 10 μM; inhibition of cAMP production; HTRF; read-out: hFPR1 cAMP2 EC50

| MOLECULE | TARGET_DESC | EC50 |
| --- | --- | --- |
| Cn1c(-c2c(F)cc(Cl)cc2F)c(NC(=O)c2ccc(OC(F)F)cc2)c(=O)n1-c1cccc(C(C)(C)O)n1 | human FPR1 (Homo sapiens, UniProt P21462) | > 10 µM |
| COc1cc(F)c(-c2c(NC(=O)c3ccc(OC(F)F)cc3)c(=O)n(-c3nc(OC)ccc3C#N)n2C)c(F)c1 | human FPR1 (Homo sapiens, UniProt P21462) | > 10 µM |
| COc1cc(F)c(-c2c(NC(=O)c3ccc(OC(F)F)cc3)c(=O)n(-c3nc(N[C@H]4CCOC4)ccc3C(F)(F)F)n2C)c(F)c1 | human FPR1 (Homo sapiens, UniProt P21462) | > 10 µM |
| [2H]C([2H])([2H])Oc1cc(F)c(-c2c(NC(=O)c3ccc(OC(F)(F)F)cc3)c(=O)n(-c3cc(C(F)(F)F)ccn3)n2C)c(F)c1 | human FPR1 (Homo sapiens, UniProt P21462) | > 10 µM |
| COc1cc(F)c(-c2c(NC(=O)c3ccc(OC(F)F)cc3)c(=O)n(-c3cccc(N4CCN(S(C)(=O)=O)CC4)n3)n2C)c(F)c1 | human FPR1 (Homo sapiens, UniProt P21462) | > 10 µM |
| COc1cc(OCC(C)(CO)CO)nc(-n2c(=O)c(NC(=O)c3ccc(OC(F)F)cc3)c(-c3c(F)cc(OC)cc3F)n2C)c1 | human FPR1 (Homo sapiens, UniProt P21462) | > 10 µM |
| COc1cc(F)c(-c2c(NC(=O)c3ccc(OC(F)F)cc3)c(=O)n(-c3nc(NC[C@H](O)C(F)(F)F)ccc3C(F)(F)F)n2C)c(F)c1 | human FPR1 (Homo sapiens, UniProt P21462) | > 5 µM |
| COc1cc(F)c(-c2c(NC(=O)c3ccc(OC(F)F)cc3)c(=O)n(-c3nc(S(C)(=O)=O)ccc3C(F)(F)F)n2C)c(F)c1 | human FPR1 (Homo sapiens, UniProt P21462) | > 10 µM |
| COc1cc(N2CCOCC2)nc(-n2c(=O)c(NC(=O)c3ccc(OC(F)F)cc3)c(-c3c(F)cc(OC)cc3F)n2C)c1 | human FPR1 (Homo sapiens, UniProt P21462) | 2.1 µM |
| COc1cc(F)c(-c2c(NC(=O)c3ccc(OC(F)F)cc3)c(=O)n(-c3cc(C#N)cc(C(C)C)c3)n2C)c(F)c1 | human FPR1 (Homo sapiens, UniProt P21462) | 0.065 µM |
| COc1cc(F)c(-c2c(NC(=O)c3ccc(OC(F)F)cc3)c(=O)n(-c3cccc(C(C)(C)O)n3)n2C)c(F)c1 | human FPR1 (Homo sapiens, UniProt P21462) | 0.75 µM |
| CCOC(=O)Cn1c(=O)c(NC(=O)c2ccc(OC(F)F)cc2)c(-c2c(F)cc(OC)cc2F)n1C | human FPR1 (Homo sapiens, UniProt P21462) | > 10 µM |
| COc1cc(F)c(-c2c(NC(=O)c3ccc(OC(F)F)cc3)c(=O)n(-c3cccc(N4CC(F)(F)C4)n3)n2C)c(F)c1 | human FPR1 (Homo sapiens, UniProt P21462) | 6.2 µM |
| COc1cc(OCC(O)C(F)(F)F)nc(-n2c(=O)c(NC(=O)c3ccc(OC(F)F)cc3)c(-c3c(F)cc(OC)cc3F)n2C)c1 (centres unmarked) [Example 383] | human FPR1 (Homo sapiens, UniProt P21462) | 2.5 µM |
| COc1cc(F)c(-c2c(NC(=O)c3ccc(OC(F)(F)F)cc3)c(=O)n(-c3cccnc3C#N)n2C)c(F)c1 | human FPR1 (Homo sapiens, UniProt P21462) | > 10 µM |
| COc1cc(F)c(-c2c(NC(=O)c3ccc(OC(F)F)cc3)c(=O)n(-c3ccccc3Cl)n2C)c(F)c1 | human FPR1 (Homo sapiens, UniProt P21462) | > 10 µM |
| COc1cc(F)c(-c2c(NC(=O)c3ccc(Cl)cc3)c(=O)n(-c3ccc(C)cn3)n2C)c(F)c1 | human FPR1 (Homo sapiens, UniProt P21462) | > 10 µM |
